Listed here are molecules together with their documented Aglycone of Cmpd 1 (HPLC area %) 2 Week.
- ASSAY_OVERVIEW: Stability of hydrochloride salts of telavancin on storage (HPLC area % of pseudoaglycone and aglycone impurities)
- Type: physicochemical
- CONDITION_PARAMETERS: stored at 25° C. for 2 weeks, glass vials

| MOLECULE | Aglycone of Cmpd 1 (HPLC area %) 2 Week |
| --- | --- |
| CCCCCCCCCCNCCN[C@@]1(C)C[C@H](O[C@H]2[C@H](Oc3c4cc5cc3Oc3ccc(cc3Cl)[C@@H](O)[C@@H](NC(=O)[C@@H](CC(C)C)NC)C(=O)N[C@@H](CC(N)=O)C(=O)N[C@H]5C(=O)N[C@H]3C(=O)N[C@H](C(=O)N[C@H](C(=O)O)c5cc(O)c(CNCP(=O)(O)O)c(O)c5-c5cc3ccc5O)[C@H](O)c3ccc(c(Cl)c3)O4)O[C@H](CO)[C@@H](O)[C@@H]2O)O[C@@H](C)[C@H]1O [2.42, telavancin] | 0.05 HPLC area % |

Input line: Find the measured Aglycone of Cmpd 1 (HPLC area %) 2 Week of CCCCCCCCCCNCCN[C@@]1(C)C[C@H](O[C@H]2[C@H](Oc3c4cc5cc3Oc3ccc(cc3Cl)[C@@H](O)[C@@H](NC(=O)[C@@H](CC(C)C)NC)C(=O)N[C@@H](CC(N)=O)C(=O)N[C@H]5C(=O)N[C@H]3C(=O)N[C@H](C(=O)N[C@H](C(=O)O)c5cc(O)c(CNCP(=O)(O)O)c(O)c5-c5cc3ccc5O)[C@H](O)c3ccc(c(Cl)c3)O4)O[C@H](CO)[C@@H](O)[C@@H]2O)O[C@@H](C)[C@H]1O [3.68, telavancin] and report it.
Output line: 0.08 HPLC area %
